assay: Cell viability assay (CellTiter-Glo); format: cell-based, human; details: human, HepG2 cells, 1 mM safranal, read-out: reduction of cell viability
PROPERTY LABEL: cytotoxicity at 24 h, 1 mM

The compound listed as CC1=C(C=O)C(C)(C)CC=C1 [Safranal] shows cytotoxicity at 24 h, 1 mM equal to ~70%

The measured values listed here are drawn from patent US10912741B2.
